- PROTOCOL_DETAILS: in vitro
- CONDITION_PARAMETERS: human, Caco-2
TEST_READOUT: Papp at 0.2 μCi/mL
# include the unit after the value

Which measured Papp at 0.2 μCi/mL value corresponds to `OC[C@@H](O)[C@@H](O)[C@H](O)[C@H](O)CO` ?
5.21 ×10⁻⁶ cm/s

###

- Test system: P-gp
- PROTOCOL_DETAILS: in vitro
- CONDITION_PARAMETERS: human, Caco-2, Papp B–A
TEST_READOUT: Papp B→A (×10⁻⁶ cm/s)
The reply should contain only the number, in ×10⁻⁶ cm/s.

Which measured Papp B→A value corresponds to CCC(=O)C(CC(C)N(C)C)(c1ccccc1)c1ccccc1 (stereo not shown) [Methadone, methadone] ?
19.4
